Values were extracted from patent US20150336943A1.

Entries and their measured log10 Ki follow.
Molecular target: adrenergic receptor alpha2C (Homo sapiens)
Construct: expressed in transfected cells; host or cells: recombinant human cells (so in the source)
Sequence (P18825 1-462): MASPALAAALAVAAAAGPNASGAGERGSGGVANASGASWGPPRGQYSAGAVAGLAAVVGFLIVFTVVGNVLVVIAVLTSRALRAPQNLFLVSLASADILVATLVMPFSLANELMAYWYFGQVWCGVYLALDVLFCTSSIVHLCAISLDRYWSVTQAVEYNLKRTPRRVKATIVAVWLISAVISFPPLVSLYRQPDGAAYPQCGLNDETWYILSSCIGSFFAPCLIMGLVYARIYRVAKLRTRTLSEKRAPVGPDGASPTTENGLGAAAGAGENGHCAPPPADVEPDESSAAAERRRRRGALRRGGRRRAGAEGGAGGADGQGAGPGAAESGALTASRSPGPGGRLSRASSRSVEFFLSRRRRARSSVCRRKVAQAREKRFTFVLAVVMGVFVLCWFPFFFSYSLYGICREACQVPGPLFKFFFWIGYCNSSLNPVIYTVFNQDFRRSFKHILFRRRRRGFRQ
Assay: Inhibition constants (Ki) for adrenergic receptor alpha2C in recombinant cells
Assay type: binding
Details: read-out: pKi α2C (converted)
PROPERTY_NAME: log10 Ki (log10 of the value in nM)

# MOLECULE, TESTED_TARGET, log10 Ki
data = [
    ("O=C1OC[C@H](Cc2ccccc2)N1CCC1CCN(C[C@H]2COc3ccc(OC(F)(F)F)cc3O2)CC1 [Example 32]", "adrenergic receptor alpha2C (Homo sapiens)", 0.82),
    ("O=C1COCCN1CCC1CCN(C[C@H]2COc3c(F)cc(F)cc3O2)CC1 [Example 91]", "adrenergic receptor alpha2C (Homo sapiens)", -0.36),
    ("O=C1OCCN1CCC1CCN(C[C@H]2COc3c(Cl)cc(F)cc3O2)CC1 [Example 13]", "adrenergic receptor alpha2C (Homo sapiens)", -0.02),
    ("O=C1OC[C@H](Cc2ccccc2)N1CCC1CCN(C[C@H]2COc3cc(O)ccc3O2)CC1 [Example 36]", "adrenergic receptor alpha2C (Homo sapiens)", -0.25),
    ("O=C1OCCN1CCC1CCN(C[C@H]2COc3ccc(F)cc3O2)CC1 [Example 7]", "adrenergic receptor alpha2C (Homo sapiens)", -0.07),
    ("O=C1OC[C@H](Cc2ccccc2)N1CCC1CCN(C[C@H]2COc3ccc(Br)cc3O2)CC1 [Example 26]", "adrenergic receptor alpha2C (Homo sapiens)", 0.31),
    ("O=C1OC[C@@H](CO)N1CCC1CCN(C[C@H]2COc3c(Cl)cc(F)cc3O2)CC1 [Example 63]", "adrenergic receptor alpha2C (Homo sapiens)", 0.43),
    ("O=C1OCCN1CCC1CCN(C[C@H]2COc3c(F)cc(F)cc3O2)CC1 [Example 10]", "adrenergic receptor alpha2C (Homo sapiens)", -0.27),
    ("O=C1COCCN1CCC1CCN(C[C@H]2COc3c(F)cc(Cl)cc3O2)CC1 [Example 94]", "adrenergic receptor alpha2C (Homo sapiens)", -0.21),
]

---

Entries and their measured log10 ED50 follow.
Tested on: MK-801-induced hyperactivity
Assay: MK-801-induced hyperactivity test in mice
Format: in vivo
Conditions: Mus musculus
PROPERTY_NAME: log10 ED50 (log10 of the value in mg/kg)

# MOL, PROPERTY_NAME, MEASURED
records = [
    ("O=C1OC[C@@H](COc2ccccc2)N1CCC1CCN(C[C@H]2COc3ccc(Br)cc3O2)CC1", "log10 ED50", -0.22),
    ("O=C1OC[C@@H](CO)N1CCC1CCN(C[C@H]2COc3c(F)cc(Cl)cc3O2)CC1", "log10 ED50", 0.32),
    ("O=C1OCCN1CCC1CCN(C[C@H]2COc3c(Cl)cc(F)cc3O2)CC1", "log10 ED50", -1.40),
    ("O=C1OCCN1CCC1CCN(C[C@H]2COc3c(F)cc(F)cc3O2)CC1", "log10 ED50", -0.89),
    ("O=C1COCCN1CCC1CCN(C[C@H]2COc3c(F)cc(F)cc3O2)CC1", "log10 ED50", -0.15),
    ("O=C1OC[C@@H](CO)N1CCC1CCN(C[C@H]2COc3c(Cl)cc(F)cc3O2)CC1", "log10 ED50", -0.70),
    ("O=C1OC[C@H](Cc2ccccc2)N1CCC1CCN(C[C@H]2COc3ccc(Br)cc3O2)CC1", "log10 ED50", -0.05),
    ("N#Cc1ccc2c(c1)O[C@@H](CN1CCC(CCN3CCOCC3=O)CC1)CO2", "log10 ED50", -0.30),
    ("O=C1OC[C@H](Cc2ccccc2)N1CCC1CCN(C[C@H]2COc3cc(O)ccc3O2)CC1", "log10 ED50", 0.53),
]
